- Test system: Enterococcus faecium
- procedureSummary: Antimicrobial activity against Enterococcus faecium 10-5 after 18-24 hrs by two-fold serial dilution method
- Format: functional
Below, each entry is listed alongside its reported MIC.

{"molecule": "COc1ccc(CO/N=C2\\CN(c3nc4c(cc3F)c(=O)c(C(=O)O)cn4C3CC3)CC2CN)cc1OC.CS(=O)(=O)O (racemic)", "unit": "mg/L", "MIC": 4}
{"molecule": "CS(=O)(=O)O.NCC1CN(c2nc3c(cc2F)c(=O)c(C(=O)O)cn3C2CC2)C/C1=N\\OCc1ccc2c(c1)OCCO2 (racemic)", "unit": "mg/L", "MIC": 8}
{"molecule": "COc1cc(Br)c(CO/N=C2\\CN(c3nc4c(cc3F)c(=O)c(C(=O)O)cn4C3CC3)CC2CN)cc1OC.CS(=O)(=O)O (racemic)", "unit": "mg/L", "MIC": 64}
{"molecule": "CO/N=C1\\CN(c2nc3c(cc2F)c(=O)c(C(=O)O)cn3C2CC2)CC1CN (stereo not drawn)", "unit": "mg/L", "MIC": 8}
{"molecule": "COc1ccc(CO/N=C2\\CN(c3nc4c(cc3F)c(=O)c(C(=O)O)cn4C3CC3)CC2CN)c([N+](=O)[O-])c1OC.CS(=O)(=O)O (racemic)", "unit": "mg/L", "MIC": 4}
{"molecule": "COc1ccc(CO/N=C2\\CN(c3nc4c(cc3F)c(=O)c(C(=O)O)cn4C3CC3)CC2CN)cc1.CS(=O)(=O)O (racemic)", "unit": "mg/L", "MIC": 4}
{"molecule": "COc1cc(CO/N=C2\\CN(c3nc4c(cc3F)c(=O)c(C(=O)O)cn4C3CC3)CC2CN)c([N+](=O)[O-])cc1OC.CS(=O)(=O)O (racemic)", "unit": "mg/L", "MIC": 8}
{"molecule": "COc1cc(CO/N=C2\\CN(c3nc4c(cc3F)c(=O)c(C(=O)O)cn4C3CC3)CC2CN)ccc1OC(F)F.CS(=O)(=O)O (racemic)", "unit": "mg/L", "MIC": 8}
